Data origin: PubChem BioAssay AID2289

Potency values, listed per item
# ASSAY_OVERVIEW: qHTS Assay for Modulators of miRNAs and/or Inhibitors of miR-21; note: potency is the fitted concentration of half-maximal effect; nearly all actives have a fitted effect of over 55% in size
# APPLIED_CONDITIONS: HeLa miR-21-FLuc reporter, luciferase luminescence, 48 h; actives lower the signal
In all, about 340,000 compounds went through this assay and about 3,300 (0.97%) were called active. Roughly 9% stayed inconclusive and do not appear here. The list shows a part of the results.
ASSAY_METRIC: Potency

{"columns": ["MOLECULE", "OBS_VALUE"],
 "data": [
  ["Cc1ccc(-c2onc3ccc(C(=O)O)cc23)cc1", "1.17 µM (active)"],
  ["Cc1nn(-c2ccccc2)c(Cl)c1/C=N/NC(=O)c1ccnn1C", "5.21 µM (active)"],
  ["Cc1ccc(C2=NN(S(C)(=O)=O)C(c3ccc4c(c3)OCO4)C2)cc1 (stereo not given)", "0.521 µM (active)"],
  ["O=c1cc(-c2ccccc2)oc2ccc(O)cc12", "3.29 µM (active)"],
  ["C(#Cc1ccccc1)Cn1nnc2ccccc21", "13.1 µM (active)"],
  ["CNc1nc(C)c(C(=O)OCc2ccccc2)s1", "16.5 µM (active)"],
  ["CCOC(=O)N/N=C\\C=C\\c1ccc2c(c1)OCO2", "7.36 µM (active)"],
  ["COc1nccnc1NS(=O)(=O)c1ccc(NCc2cc(Br)ccc2O)cc1", "18.5 µM (active)"],
  ["Cc1ccc(NC(=O)NCc2c(C)nn(C)c2C)cc1Cl", "5.21 µM (active)"],
  ["O=c1c2cn[nH]c2[nH]c(=S)n1-c1ccccc1F", "0.927 µM (active)"],
  ["COC(=O)c1sc(NC(=O)COc2ccccc2)nc1C", "7.36 µM (active)"],
  ["CCCCOc1ccc2c(c1)C(=O)c1cc(O)ccc1-2", "5.85 µM (active)"],
  ["Cc1cc(CC(C)C)n(-c2nc3ccccc3c(=O)n2OCC(=O)N(C)C)n1", "18.5 µM (active)"],
  ["COc1ccccc1OCC(=O)Nc1ccc2c(c1)OCCO2", "8.26 µM (active)"],
  ["CCCOc1ccc(-c2csc(N)n2)cc1[N+](=O)[O-]", "5.21 µM (active)"]
]}

---

# ASSAY_OVERVIEW: qHTS Assay for Modulators of miRNAs and/or Inhibitors of miR-21; note: potency is the fitted concentration of half-maximal effect; nearly all actives have a fitted effect of over 55% in size
# APPLIED_CONDITIONS: HeLa miR-21-FLuc reporter, luciferase luminescence, 48 h; actives lower the signal
Among all 340,000 compounds or so, about 3,300 (0.97%) were called active. Another 9% or so got no clear call; they are omitted. Some of the results follow.
Potency values, listed per item

{"columns": ["COMPOUND", "Potency"],
 "data": [
  ["Nc1nc2c(Cl)cc(Cl)cc2s1", "18.5 µM (active)"],
  ["CCCC(=O)Nc1sc2c(c1C#N)CCCCC2", "2.93 µM (active)"],
  ["Cc1[nH]c2ccccc2c1/C=C/c1nc2ccccc2c(=O)[nH]1", "1.31 µM (active)"],
  ["O=S(=O)(Nc1ccc(-c2nc3cccnc3s2)cc1)c1cc(F)ccc1F", "16.5 µM (active)"],
  ["Cc1cc(C)cc(NC(=O)c2cc(CN3CCCC3)on2)c1", "11.7 µM (active)"],
  ["O=C(CSc1ncnc2ccccc12)c1ccc2c(c1)OCCO2", "2.07 µM (active)"],
  ["CCn1cnc2sc(-c3ccccc3)cc2c1=O", "1.47 µM (active)"],
  ["CCc1cc2c(SCC(=O)c3ccccc3)ncnc2s1", "8.26 µM (active)"],
  ["Cc1ccc(Nc2cc(C)nc(-c3ccccc3)n2)cc1", "7.36 µM (active)"],
  ["Cc1ccc(NC(=O)Nc2ccc3c(c2)OCO3)cc1F", "0.736 µM (active)"],
  ["CC(=O)Cn1nnc2sc(-c3ccccc3)cc2c1=O", "1.85 µM (active)"],
  ["COC(=O)/C(=C/c1cccc([N+](=O)[O-])c1)NC(=O)c1ccc(OC)cc1", "5.21 µM (active)"],
  ["COc1ccccc1N1CCN(/N=C\\c2ccccc2)CC1", "10.4 µM (active)"],
  ["O=c1oc2ccccc2cc1NCc1ccccc1O", "10.4 µM (active)"],
  ["O=C1CCn2nc(-c3ccc(Cl)cc3)cc2N1", "6.56 µM (active)"],
  ["Cc1ccc(CSc2ccc(-c3ccco3)nn2)cc1", "6.56 µM (active)"],
  ["Cc1cccc(Nc2nc3c(s2)CCCC3)c1", "2.07 µM (active)"],
  ["Cc1cccc(C(=O)Nc2sc3c(c2C#N)CCCCC3)c1", "0.261 µM (active)"],
  ["COc1ccccc1OCCCn1c(=O)sc2ccccc21", "9.27 µM (active)"],
  ["C/C(N)=C(/C#N)C(=O)CSc1ccccc1F", "8.26 µM (active)"],
  ["O=C(Nc1ccccc1F)c1ccc(Cn2cc(Cl)cn2)cc1", "10.4 µM (active)"],
  ["N#Cc1c(NC(=O)C2CC2)sc2c1CCCCC2", "8.26 µM (active)"],
  ["C=CCOc1cccc(/C=C/c2nc3ccccc3c(=O)[nH]2)c1", "0.826 µM (active)"],
  ["Cc1ccc(COc2ccc(C)nc2[N+](=O)[O-])cc1", "0.927 µM (active)"],
  ["COc1ccccc1N1CCN(/N=C/c2cccc(Cl)c2)CC1", "6.56 µM (active)"],
  ["Cc1ccccc1OCC(=O)Nc1ccc2c(c1)OCCO2", "6.56 µM (active)"],
  ["O=C(OCc1csc(-c2ccccc2)n1)c1ccccc1O", "9.27 µM (active)"],
  ["C=CCNC(=O)/C=C/c1ccc(C(C)C)cc1", "7.36 µM (active)"],
  ["O=C(Nc1ccccc1)c1cc2n(n1)C(C(F)(F)F)CC(C1CC1)N2 (centres undefined)", "6.56 µM (active)"],
  ["Fc1cccc2sc(Nc3nc4cc5c(cc4s3)OCCO5)nc12", "0.208 µM (active)"],
  ["Cc1ccc(-c2nc3ccccn3c2Nc2ccc3c(c2)OCCO3)s1", "1.85 µM (active)"],
  ["CN(C)/N=C/c1ccc(OS(=O)(=O)c2ccccc2)cc1", "3.29 µM (active)"],
  ["COc1ccc(NC(=O)C2C3CC/C=C\\CCC32)cc1 (centres undefined)", "6.56 µM (active)"],
  ["OC[C@H]1O[C@@H](n2cnc3c(Nc4ccccc4)ncnc32)[C@H](O)[C@@H]1O", "3.69 µM (active)"],
  ["COc1ccc(OCCSc2nc(N)cc(N)n2)cc1", "3.29 µM (active)"],
  ["Nc1cc(N)nc(SCCOc2ccccc2)n1", "11.7 µM (active)"],
  ["Cc1ccn2c(Nc3ccc4c(c3)OCCO4)c(-c3ccc(Cl)s3)nc2c1", "13.1 µM (active)"],
  ["Cn1/c(=N/N=C/c2ccccn2)sc2ccccc21", "2.07 µM (active)"],
  ["c1cnc(SCCOc2cccc3ccccc23)nc1", "3.29 µM (active)"]
]}

---

Potency values, listed per item
# ASSAY_OVERVIEW: qHTS Assay for Modulators of miRNAs and/or Inhibitors of miR-21; note: potency is the fitted concentration of half-maximal effect; nearly all actives have a fitted effect of over 55% in size
# APPLIED_CONDITIONS: HeLa miR-21-FLuc reporter, luciferase luminescence, 48 h; actives lower the signal
The whole screen tested about 340,000 compounds, of which about 3,300 (0.97%) were called active. Another 9% or so got no clear call; they are omitted. The list shows a part of the results.

{"columns": ["COMPOUND", "Potency"],
 "data": [
  ["COc1cccc2[nH]c(=O)c(-c3ccccc3)cc12", "1.65 µM (active)"],
  ["Cc1cc(C(=O)Nc2nc3ccc(Cl)cc3s2)nn1C", "0.927 µM (active)"],
  ["O=C(/C=C/c1cccc2ccccc12)N1CCOCC1", "6.56 µM (active)"],
  ["Cc1ccc(Nc2ncccc2C(N)=O)cc1[N+](=O)[O-]", "3.29 µM (active)"],
  ["COc1ccccc1NC(CC(=O)c1ccccc1)C(=O)OCC(=O)c1ccc(C)cc1 (stereo unspecified)", "1.47 µM (active)"],
  ["O=C(Nc1ccc(Br)cc1)C1Cc2ccccc2O/C1=N\\O (stereo unspecified)", "7.36 µM (active)"],
  ["N/C(=N\\OC(=O)COc1ccc(Br)cc1Cl)c1ccncc1", "0.927 µM (active)"],
  ["CCC(C)c1ccc(OCc2ccc(C(=O)O)o2)cc1 (stereo unspecified)", "0.233 µM (active)"],
  ["Cc1nnc(SCc2cccc3ccccc23)s1", "14.7 µM (active)"],
  ["O=C(NC12CC3CC(CC(C3)C1)C2)c1ccc(-c2ccc(Br)cc2)o1", "7.36 µM (active)"],
  ["O=C(N/N=C/C(Cl)=C\\c1ccccc1)c1cccs1", "1.85 µM (active)"],
  ["COc1ccc(-c2cc(C(=O)c3c(N)n(C)c(=O)n(C)c3=O)c3ccccc3n2)cc1OC", "4.65 µM (active)"],
  ["CCC(C)c1ccc(OCc2ccc(C(=O)OC)o2)cc1 (stereo unspecified)", "4.65 µM (active)"],
  ["COc1ccc(Nc2nc(N)nc(CSc3nnc(C)s3)n2)cc1", "18.5 µM (active)"],
  ["Fc1ccc(/C=C/c2nnc(-c3cccs3)o2)cc1", "2.07 µM (active)"],
  ["O=C1NC(c2ccccc2Cl)=N/C1=C/c1ccco1", "10.4 µM (active)"],
  ["Cc1cccc(NC(=O)C2Cc3ccccc3O/C2=N\\O)c1 (stereo unspecified)", "14.7 µM (active)"],
  ["COc1cccc(NC(=O)c2c(-c3ccc(C)cc3)nnc3ccccc23)c1", "4.65 µM (active)"],
  ["CCS(=O)(=O)N1Cc2ccccc2CC1C(=O)Nc1nccs1 (stereo unspecified)", "14.7 µM (active)"],
  ["O=C(O)c1cc(N/N=C/c2cccs2)ccc1Cl", "1.85 µM (active)"],
  ["CCOC(=O)/C=C(\\C)N1N=C(c2ccccc2)CC1c1ccccc1 (stereo unspecified)", "2.33 µM (active)"],
  ["CN(C)CCCN(C(=O)c1sc2ccccc2c1Cl)c1nc2ccc(F)cc2s1", "9.27 µM (active)"],
  ["CC1=NN(C(=O)c2ccc(C)o2)C(O)(c2ccccc2)C1 (stereo unspecified)", "16.5 µM (active)"],
  ["C=CCn1c(SCC(N)=O)nc2scc(-c3ccc(C)o3)c2c1=O", "5.85 µM (active)"],
  ["O=C(NC12CC3CC(CC(C3)C1)C2)c1ccc(-c2cccc(Cl)c2)o1", "1.47 µM (active)"],
  ["COc1ccc(-c2csc(-c3cccs3)n2)cc1OC", "6.56 µM (active)"],
  ["Cc1nc(NC(=O)/C=C/c2ccccc2)sc1C(=O)N(C)C", "13.1 µM (active)"],
  ["O=C1c2ccccc2NC(c2ccccc2O)N1c1ccc(F)cc1 (stereo unspecified)", "2.93 µM (active)"],
  ["COc1cc(Cl)cc(/C=C/c2ccc3ccccc3n2)c1OC(C)=O", "0.414 µM (active)"],
  ["Cc1ccc(NC(=O)C2Cc3ccccc3O/C2=N\\O)cc1C (stereo unspecified)", "14.7 µM (active)"],
  ["Fc1ccc(OCc2nc(-c3cccs3)no2)cc1", "6.56 µM (active)"],
  ["CCc1ccc(OCC(=O)O/N=C(\\N)c2ccncc2)c(Br)c1", "4.65 µM (active)"],
  ["COc1ccc(/C=C/c2ccncc2)cc1OC", "16.5 µM (active)"],
  ["Nc1nc(N2CCN(C(=O)c3ccco3)CC2)nc2ccccc12", "14.7 µM (active)"],
  ["COc1cccc(C(=O)/C=C/Nc2ccc(S(=O)(=O)Nc3ncccn3)cc2)c1", "11.7 µM (active)"],
  ["O=C(/C=C/c1ccc(F)cc1)NC(=S)N1CCN(c2ccccn2)CC1", "13.1 µM (active)"]
]}
